Tested on: R275C/beta1
Measurement Description: modulators of BK channel variants, profiling panel, selectivity assay, cell-based, U2OS BacMam, thallium flux, beta subunits (AID 1259406);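 also: initial slope of Thallos dye fluorescence rise after thallium is added; log ratio against the mean of 0.3% DMSO vehicle wells on the same plate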
Condition Description: at 30 µM
Activity calls are given as the source filed them.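 The calls were made as follows: active = thallium flux through the channel raised or lowered by more than 3 SD from vehicle-only wells, actives on both sides; inactive = the rest.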
Parameter call: string, one of label 1 = active, label 0 = inactive

## Input Hi team, can someone confirm the assay call for O=C1c2cc(S(=O)(=O)O)ccc2CCC1S(=O)(=O)O (stereo unspecified) ?
## Output label 0

## Input Hi team, can someone confirm the assay call for COC(=O)Cc1cccc2c(=O)c3ccccc3oc12 ?
## Output label 0

## Input Hi team, can someone confirm the assay call for O=C(NC(=O)c1ccccc1Oc1ccc(Cl)cc1Cl)Nc1cc(Cl)cc(Cl)c1 ?
## Output label 0

## Input Hi team, can someone confirm the assay call for CSc1nc(C=Nc2cccc(Cl)c2)c(O)n1Cc1cccc(Cl)c1 ?
## Output label 0

## Input Hi team, can someone confirm the assay call for COCc1cc(=O)[nH]c(SCC(=O)c2ccc(-c3ccccc3)cc2)n1 ?
## Output label 0

## Input Hi team, can someone confirm the assay call for Cc1ccc(S(=O)(=O)N2Cc3ccccc3C(C)CC23CCCCC3)cc1 (stereo unspecified) ?
## Output label 1

## Input Hi team, can someone confirm the assay call for Clc1ccc(-n2nnnc2-c2cccnc2)c(Cl)c1 ?
## Output label 0

## Input Hi team, can someone confirm the assay call for CC(C)NCC(O)c1ccc(NS(C)(=O)=O)cc1 (stereo unspecified) ?
## Output label 0

## Input Hi team, can someone confirm the assay call for C[C@@H](c1ncncc1F)[C@](O)(Cn1cncn1)c1ccc(F)cc1F ?
## Output label 0

## Input Hi team, can someone confirm the assay call for O=C(NNC(=O)c1ccc2nonc2c1)c1cccc(C(F)(F)F)c1 ?
## Output label 0

## Input Hi team, can someone confirm the assay call for CSc1nc2cc(Oc3cccc(Cl)c3Cl)c(Cl)cc2[nH]1 ?
## Output label 1

----------
Test system: R275C/Slo1WT/beta2
Measurement Description: modulators of BK channel variants, profiling panel, selectivity assay, cell-based, U2OS BacMam, thallium flux, beta subunits (AID 1259406);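 also: initial slope of Thallos dye fluorescence rise after thallium is added; log ratio against the mean of 0.3% DMSO vehicle wells on the same plate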
Condition Description: at 30 µM
The source made the active and inactive calls.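 How the source made its calls: active means thallium flux through the channel raised or lowered by more than 3 SD from vehicle-only wells, actives on both sides; inactive means the rest.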
Parameter call: string, one of true (active), false (inactive)

## Input Hi team, can someone confirm the assay call for COC(=O)c1sccc1NN=C(C)c1ccc(NC(=O)C(Cl)Cl)cc1 ?
## Output false

## Input Hi team, can someone confirm the assay call for CCOC(=O)NN=C(C)C(C)=NNC(=O)OCC ?
## Output false

## Input Hi team, can someone confirm the assay call for Cc1ccccc1S(=O)(=O)NCc1ccc(N2CCN(C)CC2)cc1 ?
## Output false

## Input Hi team, can someone confirm the assay call for CN(C)C=NC(=O)c1sc(S(C)(=O)=O)c2c1CCC=C2 ?
## Output false

## Input Hi team, can someone confirm the assay call for CN1C2CCC1CC(OC(c1ccccc1)c1ccccc1)C2 (stereo not given) ?
## Output false

## Input Hi team, can someone confirm the assay call for COC(=O)C(C#N)=CN(C)C ?
## Output false

## Input Hi team, can someone confirm the assay call for O=C(Nc1ccc(F)cc1)N1CCN(Cc2ccccc2)CC1 ?
## Output false

## Input Hi team, can someone confirm the assay call for O=[N+]([O-])c1cnc(Sc2nccc(-c3cccnc3)n2)s1 ?
## Output false

## Input Hi team, can someone confirm the assay call for COC(=O)Cc1cccc2c(=O)c3ccccc3oc12 ?
## Output false

## Input Hi team, can someone confirm the assay call for COc1cc(CCC(C)NC(=O)c2ccc(C)cc2)ccc1OC(=O)c1ccc(C)cc1 (stereo not given) ?
## Output false

## Input Hi team, can someone confirm the assay call for O=S(=O)(c1ccc(N2CCOCC2)nc1)N1CCN(c2c(Cl)cncc2Cl)CC1 ?
## Output false

## Input Hi team, can someone confirm the assay call for Cc1ccc(C(=O)Cn2cc([N+](=O)[O-])nc2C)cc1 ?
## Output false

## Input Hi team, can someone confirm the assay call for C=CC[C@@H]1C=C(C)C[C@H](C)C[C@H](OC)[C@H]2O[C@@](O)(C(=O)C(=O)N3CCCC[C@H]3C(=O)O[C@H](/C(C)=C/[C@@H]3CC[C@@H](O)[C@H](OC)C3)[C@H](C)[C@@H](O)CC1=O)[C@H](C)C[C@@H]2OC ?
## Output false

## Input Hi team, can someone confirm the assay call for O=C(Nc1csc(Cc2c(Cl)cccc2Cl)n1)NN1CCOCC1 ?
## Output false

## Input Hi team, can someone confirm the assay call for Cc1ccc(-c2nc(N=CNOC(=O)c3ccc([N+](=O)[O-])cc3)sc2C)cc1Cl ?
## Output false

## Input Hi team, can someone confirm the assay call for CCOC(=O)C(C)Oc1ccc(NS(=O)(=O)c2cc(OC)ccc2OC)cc1Cl (stereo not given) ?
## Output false

## Input Hi team, can someone confirm the assay call for Cc1ccc(C(C)NC(=O)c2ccc(Cl)c(Cl)c2)c(C)c1 (stereo not given) ?
## Output false

## Input Hi team, can someone confirm the assay call for CN(C)C=Nc1cc(Cl)c(-n2cccc2)cc1Oc1ccc(Cl)cc1 ?
## Output false

## Input Hi team, can someone confirm the assay call for CCOC(=O)c1ccc(NC(=O)CCC(=O)O)cc1 ?
## Output false

## Input Hi team, can someone confirm the assay call for N#Cc1cc(-c2ccccc2)oc1NC(=O)c1cccs1 ?
## Output false

## Input Hi team, can someone confirm the assay call for CC1(C)CCc2cc(C=NNC(=O)c3cccc(Cl)c3Cl)ccc2O1 ?
## Output false

## Input Hi team, can someone confirm the assay call for CC(=O)OCC(=O)C12OC3(CCCC3)OC1CC1C3CCC4=CC(=O)C=CC4(C)C3(F)C(O)CC12C (stereo not given) ?
## Output false

## Input Hi team, can someone confirm the assay call for Cc1ccc(S(=O)(=O)NC(=O)NCc2csc3ccc(Cl)cc23)cc1 ?
## Output true

## Input Hi team, can someone confirm the assay call for N#Cc1ccc(NCCc2ccccn2)c([N+](=O)[O-])c1 ?
## Output false

## Input Hi team, can someone confirm the assay call for C[n+]1ccccc1C=NO ?
## Output false

## Input Hi team, can someone confirm the assay call for FC(F)(F)c1cc(-c2noc(-c3ccc4c(c3)CCO4)n2)cc(C(F)(F)F)c1 ?
## Output false

## Input Hi team, can someone confirm the assay call for COc1ccc(C(=O)NNC(=O)c2c(OC)cc(C(F)(F)F)cc2C(F)(F)F)cc1 ?
## Output false

## Input Hi team, can someone confirm the assay call for CC(=O)Nc1ccc(S(=O)(=O)C[N+](=O)[O-])cc1 ?
## Output false

## Input Hi team, can someone confirm the assay call for CSc1cc(C(C)(C)C)[nH]n1 ?
## Output false

## Input Hi team, can someone confirm the assay call for CCCCCCCCCCCCSC(=S)NCC1CCCO1 (stereo not given) ?
## Output false

## Input Hi team, can someone confirm the assay call for O=C(CCN1CCOCC1)Nc1cc(Cl)cc(Cl)c1 ?
## Output false

## Input Hi team, can someone confirm the assay call for O=c1c(Cl)c(N2CCOCC2)cnn1-c1cnc2ccccc2n1 ?
## Output false

## Input Hi team, can someone confirm the assay call for Cc1ccc(C(=O)c2c(-c3ccccc3)cc(-c3ccccc3)c3c2C(=O)CCC3)cc1 ?
## Output false

## Input Hi team, can someone confirm the assay call for Cn1cnc2cccc(F)c2c1=N ?
## Output false

## Input Hi team, can someone confirm the assay call for Cn1c(C(=O)O)ccc1S(=O)(=O)N(Cc1ccccc1)Cc1ccccc1 ?
## Output false

## Input Hi team, can someone confirm the assay call for O=C(CC(=O)NNC(=O)c1ccc(F)cc1)NNC(=O)c1ccc(F)cc1 ?
## Output false

## Input Hi team, can someone confirm the assay call for C[C@]12C=CC(=O)C=C1CC[C@@H]1[C@@H]2[C@@H](O)C[C@@]2(C)[C@H]1CC[C@]2(O)C(=O)COC(=O)CCC(=O)O ?
## Output false

## Input Hi team, can someone confirm the assay call for Cc1ccc(C2=C(c3ccccc3)C(=O)C(c3ccccc3)=C2c2ccc(Cl)cc2)cc1 ?
## Output false

## Input Hi team, can someone confirm the assay call for CCOC(=O)c1c(N)n(-c2ccc(Cl)cc2)c2nc3ccccc3nc12 ?
## Output false

## Input Hi team, can someone confirm the assay call for CSc1nc(C)nc(Sc2cccc(C(F)(F)F)c2)c1C#N ?
## Output false

## Input Hi team, can someone confirm the assay call for NC(=NOC(=O)Nc1cccc(Cl)c1)c1ccno1 ?
## Output false

## Input Hi team, can someone confirm the assay call for CC1CC2C3CCC4=CC(=O)C=CC4(C)[C@@]3(Cl)C(O)CC2(C)C1(O)C(=O)CO (stereo not given in full) ?
## Output false

## Input Hi team, can someone confirm the assay call for Cc1cc(Sc2nnc(N=CN(C)C)s2)c2ccccc2n1 ?
## Output false

## Input Hi team, can someone confirm the assay call for O=C(c1ccccc1)c1c(Cl)cc(C(F)(F)F)cc1Cl ?
## Output false

## Input Hi team, can someone confirm the assay call for Cc1ccc(S(=O)(=O)c2ncsc2SCc2ccc(Cl)cc2Cl)cc1 ?
## Output false
